# credit: PubChem BioAssay

- MEASUREMENT_DESCRIPTION: ICB984 medulloblastoma cell growth inhibition, synergistic combos for chromothripsis tumors, cisplatin or BGB combos (AID 1671451);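 also: cells exposed for 96 hours before readout; 0% = vehicle DMSO and 100% = killing by high DMSO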
- TEST_CONDITIONS: ICB984 medulloblastoma cells, drug combinations, cisplatin combo, at 0.5 µM, stronger effect = higher value
MEASURE_NAME: inhibition (%)
I only need the number, in %, no unit after it.

> print(dat)
                                   compound  assay.value
1  CCN(CC)CCCC(C)Nc1c2ccc(Cl)cc2nc2ccc(OC)cc12 (stereo not given)        -4.11
2                         O=C(O)CCCc1ccccc1        -38.8
3     CC(=O)OCC(CCn1cnc2cnc(N)nc21)COC(C)=O        -37.3
4  CCn1cc(C(=O)O)c(=O)c2cc(F)c(N3CCNCC3)cc21          -13

Please examine the following record next.
query: Could you tell me which inhibition is on file for O=C1c2c(O)ccc(O)c2C(=O)c2c(NCCNCCO)ccc(NCCNCCO)c21 ?
result: -40.5
